Data provenance is patent US20190064177A1.

System: diaphorase
Experiment: fluorescently labeled diaphorase binding to peptide array with or without excess FAD
Details: 10 micromolar labeled diaphorase, excess FAD present; 65535 is detector saturation
assayEndpoint: 10 microM FAD (array fluorescence of bound diaphorase)

These recorded examples may help you get a feel for the data.
seqString | readoutNumber
PRYQNFGGGSG [array peptide with C-terminal GSG linker] | 36662
DLFQLVFSGSG [array peptide with C-terminal GSG linker] | 65535
KHSFQKELGGSG [array peptide with C-terminal GSG linker] | 300.5
YRLNLKHPVGGSG [array peptide with C-terminal GSG linker] | 56689
RFGQNLPLGGSG [array peptide with C-terminal GSG linker] | 34712

a: RNWYGGSG [array peptide with C-terminal GSG linker]
b: VVQALFDGSG [array peptide with C-terminal GSG linker]
c: KEAPGPRFGGSG [array peptide with C-terminal GSG linker]
d: EDEGLSKFEGGSG [array peptide with C-terminal GSG linker]
Ask: Rank descending by 10 microM FAD (array fluorescence of bound diaphorase). Response field: labels, in requested order.
Result: a, b, c, d

====

Test system: diaphorase
Test: fluorescently labeled diaphorase binding to peptide array with or without excess FAD
Details: 10 micromolar labeled diaphorase, excess FAD present; 65535 is detector saturation
assayEndpoint: 10 microM FAD (array fluorescence of bound diaphorase)

These recorded examples may help you get a feel for the data.
seqString | measuredTarget | readoutNumber
PRSFGYNNVGGSG [array peptide with C-terminal GSG linker] | diaphorase | 40495.5
RWYKNGGSG [array peptide with C-terminal GSG linker] | diaphorase | 46265.5
LKQLFLEGGSG [array peptide with C-terminal GSG linker] | diaphorase | 23548.25
WRGFKFADGGSG [array peptide with C-terminal GSG linker] | diaphorase | 31464.5
EAVQKLLFSGSG [array peptide with C-terminal GSG linker] | diaphorase | 17702.75
RPLQVQRGGSG [array peptide with C-terminal GSG linker] | diaphorase | 41059.5
LDRLGEYQFSGSG [array peptide with C-terminal GSG linker] | diaphorase | 7142.5
RWQYYNQKFGSG [array peptide with C-terminal GSG linker] | diaphorase | 65535

A: QLLQLLFGGSG [array peptide with C-terminal GSG linker]
B: RQYQKHSYAKFSGSG [array peptide with C-terminal GSG linker]
Ask: Task for the reader: decide whether A or B has the larger 10 microM FAD (array fluorescence of bound diaphorase). // return label of chosen record
Result: A
(A: 53382.25, B: 27275.5)

P: VFGVLSQVARDGSG [array peptide with C-terminal GSG linker]
Q: VKDGNKHYWRVSGSG (VKDGANKHYWRVSGSG) [array peptide with C-terminal GSG linker]
Ask: // returns P or Q , whichever has the lower 10 microM FAD (array fluorescence of bound diaphorase) // return label of chosen record
Result: Q

A: RLYPQGYGGSG [array peptide with C-terminal GSG linker]
B: YRFAQYKGQKDGSG [array peptide with C-terminal GSG linker]
Ask: Task for the reader: decide whether A or B has the larger 10 microM FAD (array fluorescence of bound diaphorase). // return label of chosen record
Result: A

I: RAQYAQYLFGGSG [array peptide with C-terminal GSG linker]
II: KPLAVQKVGSG (KPLAVQKVFGSG) [array peptide with C-terminal GSG linker]
III: VLSLNQVYSEGSG [array peptide with C-terminal GSG linker]
Ask: Rank descending by 10 microM FAD (array fluorescence of bound diaphorase). Response field: labels, in requested order.
Result: I, II, III
(I: 55433.5, II: 36814, III: 21822.25)
